- SYSTEM TESTED: Chk1 (Homo sapiens)
- Sequence (O14757 whole entry): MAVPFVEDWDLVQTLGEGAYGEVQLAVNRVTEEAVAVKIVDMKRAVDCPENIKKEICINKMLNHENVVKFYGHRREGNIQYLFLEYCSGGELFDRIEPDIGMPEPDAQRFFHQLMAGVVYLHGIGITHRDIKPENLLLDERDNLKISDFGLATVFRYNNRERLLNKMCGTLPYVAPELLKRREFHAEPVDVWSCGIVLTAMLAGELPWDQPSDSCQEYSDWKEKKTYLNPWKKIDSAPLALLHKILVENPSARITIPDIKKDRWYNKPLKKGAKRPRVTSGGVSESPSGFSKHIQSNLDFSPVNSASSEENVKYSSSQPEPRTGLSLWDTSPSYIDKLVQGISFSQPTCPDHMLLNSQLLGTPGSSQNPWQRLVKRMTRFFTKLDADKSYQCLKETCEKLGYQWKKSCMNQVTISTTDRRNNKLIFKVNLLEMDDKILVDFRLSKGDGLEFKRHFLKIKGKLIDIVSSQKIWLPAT
- PROTOCOL SUMMARY: in vitro kinase assay, recombinant enzyme (MRC Dundee)
OBSERVABLE: IC50 (nM)
Answers are plain numbers, in nM.

IC50 of Cc1c[nH]c(=O)c2c1[nH]c1ccc3cc(OCCN4CCCCC4)ccc3c12 [C5M] , assay on Chk1 (Homo sapiens), is 13.6

---

- SYSTEM TESTED: Flt1/V-EGFR1 (Homo sapiens)
- Sequence (P17948 781-1338 limits assumed): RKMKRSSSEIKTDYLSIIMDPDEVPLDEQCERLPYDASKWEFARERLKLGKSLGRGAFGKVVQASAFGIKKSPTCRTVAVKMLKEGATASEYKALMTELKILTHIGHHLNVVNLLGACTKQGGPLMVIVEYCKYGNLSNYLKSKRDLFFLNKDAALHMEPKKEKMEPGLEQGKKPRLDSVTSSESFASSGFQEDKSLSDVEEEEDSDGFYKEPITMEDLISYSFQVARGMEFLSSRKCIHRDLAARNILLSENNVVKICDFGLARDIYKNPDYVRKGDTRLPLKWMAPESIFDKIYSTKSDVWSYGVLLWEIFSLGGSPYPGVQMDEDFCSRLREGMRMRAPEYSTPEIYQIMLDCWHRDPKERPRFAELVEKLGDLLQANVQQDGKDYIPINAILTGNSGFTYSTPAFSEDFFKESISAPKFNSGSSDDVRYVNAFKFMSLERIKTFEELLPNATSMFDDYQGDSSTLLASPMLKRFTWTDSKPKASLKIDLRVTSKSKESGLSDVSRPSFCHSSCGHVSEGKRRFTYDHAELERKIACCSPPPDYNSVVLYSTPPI
- PROTOCOL SUMMARY: in vitro kinase assay, recombinant enzyme (MRC Dundee)
OBSERVABLE: pIC50
Give bare numbers, as −log10 of the molar value.

pIC50 in this record for Cc1c[nH]c(=O)c2c1[nH]c1ccc3cc(OCCN4CCCCC4)ccc3c12 [C5M] : 7.43
